systemTested: T1, Mouse IL2Rγ extracellular domain expressed with a C-terminal myc-myc-hexahistidine tag (mouse)
T1 construct: whole entry is the tagged construct; also called mIL-2Rg-MMH
T1 chain: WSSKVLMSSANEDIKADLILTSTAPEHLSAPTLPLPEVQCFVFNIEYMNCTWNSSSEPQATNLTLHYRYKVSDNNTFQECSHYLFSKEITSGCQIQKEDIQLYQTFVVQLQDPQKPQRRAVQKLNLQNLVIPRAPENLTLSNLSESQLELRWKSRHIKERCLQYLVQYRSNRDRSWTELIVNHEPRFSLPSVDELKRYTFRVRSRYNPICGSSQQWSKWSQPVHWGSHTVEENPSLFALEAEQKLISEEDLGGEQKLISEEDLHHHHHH
testDetails: SPR Biacore 4000, anti-hFc-captured mAb, 37 C
Description: Equilibrium dissociation constants (KD values) for IL-2Rγ binding to purified anti-IL2Rγ monoclonal antibodies were determined using a Biacore 4000 instrument equipped with a real-time surface plasmon resonance biosensor. […] The dissociation of monoclonal antibody bound IL2Rγ reagents were monitored for 8-10 minutes in HBS-ET running buffer. […] Binding dissociation equilibrium constants (KD) and dissociative half-lives (t_{1/2}) were calculated from the kinetic rate constants as: […]
Listing of recorded 100 nM Ag Bound by entry.
Respond with the bare value in RU.

Observe how each entry below is paired with its result.
>>> observedresult("H4H12890P (antibody, human IgG4 S228P, kappa, V domains shown, fully human anti-IL2Rgamma mAb, human IgG4 Fc) VH: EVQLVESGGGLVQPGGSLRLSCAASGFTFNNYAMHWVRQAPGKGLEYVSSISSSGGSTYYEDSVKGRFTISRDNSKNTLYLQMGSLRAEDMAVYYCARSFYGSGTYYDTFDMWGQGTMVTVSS VL: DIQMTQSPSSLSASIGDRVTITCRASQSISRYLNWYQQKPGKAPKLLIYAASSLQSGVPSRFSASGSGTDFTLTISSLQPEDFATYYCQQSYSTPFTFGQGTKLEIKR")
1
>>> observedresult("H4H12857P (antibody, human IgG4 S228P, kappa, V domains shown, fully human anti-IL2Rgamma mAb, human IgG4 Fc; also called REGN9432) VH: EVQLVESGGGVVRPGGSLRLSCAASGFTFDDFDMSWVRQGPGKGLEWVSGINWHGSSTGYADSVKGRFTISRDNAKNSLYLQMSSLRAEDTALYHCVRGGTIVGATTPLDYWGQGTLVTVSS VL: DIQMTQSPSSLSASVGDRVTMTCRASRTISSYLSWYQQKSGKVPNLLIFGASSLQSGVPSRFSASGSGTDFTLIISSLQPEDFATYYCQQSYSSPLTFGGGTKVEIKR")
1
>>> observedresult("H4H12871P (antibody, human IgG4 S228P, kappa, V domains shown, fully human anti-IL2Rgamma mAb, human IgG4 Fc; also called REGN9434) VH: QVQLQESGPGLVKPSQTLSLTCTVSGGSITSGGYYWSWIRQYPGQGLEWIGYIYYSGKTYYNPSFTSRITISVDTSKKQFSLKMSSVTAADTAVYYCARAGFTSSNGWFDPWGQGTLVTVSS VL: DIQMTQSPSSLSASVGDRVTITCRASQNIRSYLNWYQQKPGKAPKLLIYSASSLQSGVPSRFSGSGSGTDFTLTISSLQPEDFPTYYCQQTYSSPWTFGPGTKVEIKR")
-1

Q. Answer with the recorded 100 nM Ag Bound of H4H12899P (antibody, human IgG4 S228P, kappa, V domains shown, fully human anti-IL2Rgamma mAb, human IgG4 Fc) VH: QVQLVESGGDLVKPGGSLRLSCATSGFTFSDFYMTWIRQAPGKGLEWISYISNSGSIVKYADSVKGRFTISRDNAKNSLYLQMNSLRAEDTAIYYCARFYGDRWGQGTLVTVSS VL: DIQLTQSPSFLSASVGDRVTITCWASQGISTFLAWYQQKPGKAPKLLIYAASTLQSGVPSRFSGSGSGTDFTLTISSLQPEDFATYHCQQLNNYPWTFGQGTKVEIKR only.
A. 19

Q. Answer with the recorded 100 nM Ag Bound of H4H12858P (antibody, human IgG4 S228P, kappa, V domains shown, fully human anti-IL2Rgamma mAb, human IgG4 Fc; also called REGN9433) VH: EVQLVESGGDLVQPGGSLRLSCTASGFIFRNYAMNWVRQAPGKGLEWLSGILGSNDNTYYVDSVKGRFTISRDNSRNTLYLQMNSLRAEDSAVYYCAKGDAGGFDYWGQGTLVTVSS VL: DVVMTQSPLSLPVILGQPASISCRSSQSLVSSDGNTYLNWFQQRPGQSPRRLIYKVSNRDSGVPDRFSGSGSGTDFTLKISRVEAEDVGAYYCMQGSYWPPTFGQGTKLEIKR only.
A. 0

All values here come from patent US20200247894A1.
